# measurement.target: human full length Hsp90 (Homo sapiens)
# Construct: amino acid residues 1 to 732 of human Hsp90 (GenBank: BC121062.2); made in house; host or cells: E. coli BL21DE3 (pET15b)
# procedure.text: Fluorescence polarization Hsp90 competitive binding assay (GM-FITC displacement)
# conditions: Table II, binding affinities ranked by potency; read-out: IC50
measurement.type: IC50

| smiles.str | IC50 |
| --- | --- |
| Nc1nc(Cl)cc(NCc2ccc(-c3ccc(Cl)cc3F)cc2)n1 | > 10000 nM |
| COc1cccc2c1ccn2-c1cc(N)c(C(N)=O)c(NC2CCOCC2)c1 | > 10000 nM |
| COc1ccc(CNc2ccnc(N)n2)cc1OC | > 10000 nM |

For each of the compounds below, note its IC50.
1. COc1c(C)cnc(CN(c2cc(Cl)nc(N)n2)C(C)C)c1C
2. COc1cc(CNc2cc(Cl)nc(N)n2)cc(OC)c1OC
3. COc1ccc(CNc2cc(C(F)(F)F)nc(N)n2)c(OC)c1OC
4. COc1c(C)cnc(CN(CCc2cccc(Br)c2)c2cc(Cl)nc(N)n2)c1C
5. COc1c(C)cnc(CN(Cc2ccccc2)c2cc(Cl)nc(N)n2)c1C

["> 32000 nM", "> 10000 nM", "> 10000 nM", "97 nM", "2210 nM"]

For each of the compounds below, note its IC50.
1. Cc1cnc(CN(C)c2cc(Cl)nc(N)n2)c(C)c1Br
2. Cc1cnc(CN(C)c2cc(Cl)nc(N)n2)c(C)c1Cl
3. Cc1cnc(CNc2cc(Cl)nc(N)n2)c(C)c1Cl

> 32000 nM
2150 nM
1200 nM
